Data provenance: paper PMC12645137

# SYSTEM: BChE (source equine serum) (Equus caballus)
# Construct: from tissue; host or cells: equine serum
# Sequence (P81908 whole entry): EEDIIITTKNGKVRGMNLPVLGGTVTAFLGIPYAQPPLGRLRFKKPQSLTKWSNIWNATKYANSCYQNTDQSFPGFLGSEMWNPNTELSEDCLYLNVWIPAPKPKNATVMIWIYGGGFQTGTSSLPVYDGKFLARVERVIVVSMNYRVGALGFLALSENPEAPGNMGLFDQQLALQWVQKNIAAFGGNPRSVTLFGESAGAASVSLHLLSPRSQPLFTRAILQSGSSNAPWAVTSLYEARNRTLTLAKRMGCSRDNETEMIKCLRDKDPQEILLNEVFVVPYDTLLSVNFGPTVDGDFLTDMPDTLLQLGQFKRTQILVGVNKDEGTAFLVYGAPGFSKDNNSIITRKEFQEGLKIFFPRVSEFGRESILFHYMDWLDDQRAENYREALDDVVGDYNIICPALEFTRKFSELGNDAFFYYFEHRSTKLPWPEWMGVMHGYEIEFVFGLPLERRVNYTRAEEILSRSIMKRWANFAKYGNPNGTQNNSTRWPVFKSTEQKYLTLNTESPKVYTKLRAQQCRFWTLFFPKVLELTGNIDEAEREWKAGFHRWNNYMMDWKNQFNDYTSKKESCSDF
# ASSAY OVERVIEW: biochemical
# CONDITION CONTEXT: read-out: % BChE Inhibition
# Method: The cholinesterase inhibitory potentials of our synthesized compounds were evaluated against cholinesterase enzymes (AChE/BChE). […] The yellowish color product indicates the hydrolysis of ATChI and BTChI substrates by respective enzymes, which were analyzed at 412 nm using a UV-visible spectrophotometer. […] Using a double beam spectrophotometer, the sample absorbance was measured for 4 minutes at 412 nm beside the time of reaction. […]
Given measured inhibition at 62.5 µg/mL, output 1 if it is greater than or equal to 60% and -1 if not.

Some entries whose results are on file:
>  <COMPOUND>
C/C(=N/Cc1ccc(C)cc1)[C@H]1CC[C@H]2[C@@H]3CCC4=CC(=O)CC[C@]4(C)[C@H]3CC[C@]12C

>  <GROUP>
-1

$$$$
>  <COMPOUND>
COc1ccc2c3c1O[C@H]1C[C@@H](O)C=C[C@@]31CCN(C)C2 [Galantamine, reference compound]

>  <GROUP>
1

$$$$
>  <COMPOUND>
COc1ccc(C/N=C(/C)[C@H]2CC[C@H]3[C@@H]4CCC5=CC(=O)CC[C@]5(C)[C@H]4CC[C@]23C)cc1OC

>  <GROUP>
-1

$$$$
>  <COMPOUND>
C/C(=N/Cc1ccccc1)[C@H]1CC[C@H]2[C@@H]3CCC4=CC(=O)CC[C@]4(C)[C@H]3CC[C@]12C

>  <GROUP>
-1

$$$$

Now examine the next entry.
stdin: Assess whether reported inhibition at 62.5 µg/mL for `C/C(=N/Cc1ccc(Cl)cc1)[C@H]1CC[C@H]2[C@@H]3CCC4=CC(=O)CC[C@]4(C)[C@H]3CC[C@]12C` sits at 60% or higher.
stdout: -1

###

The following compounds are shown together with reported inhibition at 250 µg/mL values.
# SYSTEM: AChE (source Electric eel) (Electrophorus electricus)
# Construct: from tissue
# Sequence (O42275 24-633): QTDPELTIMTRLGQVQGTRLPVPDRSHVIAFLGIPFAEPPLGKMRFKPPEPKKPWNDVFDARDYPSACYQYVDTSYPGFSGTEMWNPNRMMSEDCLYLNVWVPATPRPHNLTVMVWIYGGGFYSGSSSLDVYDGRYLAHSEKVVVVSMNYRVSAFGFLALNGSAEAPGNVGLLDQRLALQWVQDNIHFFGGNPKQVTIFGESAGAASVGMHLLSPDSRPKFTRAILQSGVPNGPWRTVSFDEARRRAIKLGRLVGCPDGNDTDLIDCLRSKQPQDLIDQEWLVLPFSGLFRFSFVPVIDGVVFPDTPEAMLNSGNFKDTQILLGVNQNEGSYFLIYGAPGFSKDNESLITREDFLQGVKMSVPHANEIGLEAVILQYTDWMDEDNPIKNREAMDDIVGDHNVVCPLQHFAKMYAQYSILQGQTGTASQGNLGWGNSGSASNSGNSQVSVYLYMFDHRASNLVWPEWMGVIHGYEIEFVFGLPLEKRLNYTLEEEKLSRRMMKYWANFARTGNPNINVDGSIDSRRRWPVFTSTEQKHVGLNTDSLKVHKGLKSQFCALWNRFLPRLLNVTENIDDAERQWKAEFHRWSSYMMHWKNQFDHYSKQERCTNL
# ASSAY OVERVIEW: biochemical
# CONDITION CONTEXT: read-out: % AChE Inhibition
Your answer is read as %, so omit the unit and give the number.

Completed entries (count: 2):
>  <COMPOUND>
COc1ccc(C/N=C(/C)[C@H]2CC[C@H]3[C@@H]4CCC5=CC(=O)CC[C@]5(C)[C@H]4CC[C@]23C)cc1 [AN1]

>  <VALUE UNIT>
%

>  <inhibition at 250 µg/mL>
76.3

$$$$
>  <COMPOUND>
C/C(=N/Cc1ccccc1)[C@H]1CC[C@H]2[C@@H]3CCC4=CC(=O)CC[C@]4(C)[C@H]3CC[C@]12C [AN5]

>  <VALUE UNIT>
%

>  <inhibition at 250 µg/mL>
65.2

$$$$

Here COc1ccc(C/N=C(/C)[C@H]2CC[C@H]3[C@@H]4CCC5=CC(=O)CC[C@]5(C)[C@H]4CC[C@]23C)cc1OC [AN3] was tested on AChE (source Electric eel) (Electrophorus electricus), and its inhibition at 250 µg/mL came to 64.6

Here C/C(=N/Cc1ccc(C)cc1)[C@H]1CC[C@H]2[C@@H]3CCC4=CC(=O)CC[C@]4(C)[C@H]3CC[C@]12C [AN2] was tested on AChE (source Electric eel) (Electrophorus electricus), and its inhibition at 250 µg/mL came to 64.3

Here C/C(=N/Cc1ccc(Cl)cc1)[C@H]1CC[C@H]2[C@@H]3CCC4=CC(=O)CC[C@]4(C)[C@H]3CC[C@]12C [AN4] was tested on AChE (source Electric eel) (Electrophorus electricus), and its inhibition at 250 µg/mL came to 60.3
